molecular target: BRD4-1 (Homo sapiens); construct: made in house; host or cells: Escherichia coli; assay: HTRF (TR-FRET) assay, BRD4-1 binding to acetylated histone H4 peptide
attribute-measured: IC50 (nM)
// units = nM; emit number, no label

Inquiry: I would be grateful if you could share the reported IC50 for CCC(CC)c1cc(-c2c(C)noc2C)cc2[nH]c(C3CC3)nc12 [Compound 1020-120] .
Reply text: 88.5

* * *

target: BRD4-2 (Homo sapiens, UniProt O60885); construct: made in house; host or cells: Escherichia coli; experiment: HTRF (TR-FRET) assay, BRD4-2 binding to acetylated histone H4 peptide; conditions: 120 nM BRD4-2, 200 nM H4 peptide, 60 minutes at 25° C.; geometric mean of a minimum of four determinations; read-out: HTRF BRD4-2 (IC50)
pIC50: −log10 of the molar value.
Threshold rule: pIC50 greater than or equal to 7 is Yes; below that, No.

Cc1noc(C)c1-c1cc(N2C(=O)CCC2C)c2nc(C3CC3)[nH]c2c1 (centres unmarked)	No
Cc1ccnc(C)c1-c1cc(-c2c(C)noc2C)cc2[nH]cnc12	No
Cc1ccnc(C)c1-c1cc(-c2c(C)noc2C)cc2nc(C3CC3)[nH]c12	Yes
Cc1noc(C)c1-c1cc(NC2CCCC2)c2nc(C3CC3)[nH]c2c1	No

Here's the next entry for you.
Inquiry: Threshold query (pIC50 >= 7) on CCC1CCC(=O)N1c1cc(-c2c(C)noc2C)cc2[nH]c(C3CC3)nc12 (centres unmarked)
Reply text: No

* * *

Target: BRD4-1 (Homo sapiens, UniProt O60885)
Construct: made in house; host or cells: Escherichia coli
Assay: HTRF (TR-FRET) assay, BRD4-1 binding to acetylated histone H4 peptide
Settings: 60 nM BRD4-1, 200 nM H4 peptide, 60 minutes at 25° C.; geometric mean of a minimum of four determinations; read-out: HTRF BRD4-1 (IC50)
Description: Binding of the two tandem bromodomains, BRD4-1 and BRD4-2, to an acetylated histone H4 peptide was measured using a homogeneous time resolved fluorescence resonance energy transfer (TR-FRET) assay. […] After an assay reaction time of 60 minutes at 25° C., binding was measured with 2 nM crytptate labeled streptavidin and 10 nM anti-His-XL665 antibody. TR-FRET signal was detected on an Envision plate reader (Ex: 320 nm; Em: 615/665 nm; 100 us delay and 200 μs read window). […]
Overview of reported IC50 across a group of molecules:
Give the value in nM but do not write nM after it.

Previously resolved entries follow.
Cc1noc(C)c1-c1cc(S(=O)(=O)NC2CCCC2)c2nc(NCC3CC3)[nH]c2c1 [Compound 1020-1]	201
Cc1noc(C)c1-c1cc(NC2CCCC2)c2nc(C3CC3)[nH]c2c1 [Compound 1020-50]	299
Cc1noc(C)c1-c1cc(S(=O)(=O)NC2CCCC2)c2nc([S+](C)[O-])[nH]c2c1 (stereo not shown) [Compound 1020-5]	616

Inquiry: // query IC50 value for entry CCC1CCC(=O)N1c1cc(-c2c(C)noc2C)cc2[nH]c(C3CC3)nc12 (stereo not shown) [Compound 1020-137]
Reply text: 187

* * *

molecular target: BRD4-2 (Homo sapiens, UniProt O60885); construct: made in house; host or cells: Escherichia coli; assay: HTRF (TR-FRET) assay, BRD4-2 binding to acetylated histone H4 peptide; conditions: 120 nM BRD4-2, 200 nM H4 peptide, 60 minutes at 25° C.; geometric mean of a minimum of four determinations; read-out: HTRF BRD4-2 (IC50)
Recorded measurements of pIC50, one per entry
The meaning of pIC50 here: minus log10 of the concentration in molar units.

Cc1ccc2ncccc2c1-c1cc(-c2c(C)noc2C)cc2[nH]c(-c3cnn(C)c3)nc12 [Compound 1020-88]	6.88
Cc1noc(C)c1-c1cc(S(=O)(=O)NC2CCCC2)c2nc(NCC3CC3)[nH]c2c1 [Compound 1020-1]	7.01
CC/C=C(\CC)c1cc(-c2c(C)noc2C)cc2nc(C3CC3)[nH]c12 [Compound 1020-28]	7.18
Cc1n[nH]c(C)c1-c1cc(-c2c(C)noc2C)cc2nc(C3CC3(F)F)[nH]c12 (stereo not drawn) [Compound 1020-78]	7.03
Cc1noc(C)c1-c1cc(C(C)c2ccc(F)cc2)c2[nH]c(C3CC3)nc2c1 (stereo not drawn) [Compound 1020-44]	6.96

Inquiry: What pIC50 value was documented for this compound, Cc1cnn(C)c1-c1cc(-c2c(C)noc2C)cc2nc(C3CC3)[nH]c12 [Compound 1020-12] ?
Reply text: 7.16
